Measured values drawn from patent US20250027068 for this set.

- target.or.test.system: pooled human IgG (human IgG1, 2, 3 and 4)
readout.kind: Enzyme Activity Endpoint Assay: scIgG (ng/µL)

# protein, readout.kind, experimental.value
measured = [
    ("PRT-504 (protein) MITSVWTKGVTPPTDFIKGEDVFHAPYKAGQGWYDITKAFDGGDDLLCGAATAGNMLHWWFDQNKEYIEAYLKKHPEKQKIMFGDQELLDVRKAINTKGSQKNSELFNYFRDKAFPNLSARRLGVMPDLVLDMFINGYYLNVTKTQTTDVNRTYQEKDKRGGIFDAVFTRGDQSKLLTSRHDLKNKGLNEISQLIKQELTEGKALGLSHTYANVRINHVINLWGADFDADGNLEAIYVTDSDSNASIGMKKYFVGVNSAGKVAISAKEIKEDNIGAQVLGLFTLSTGQDIWNQTNLEHHHHHH", "Enzyme Activity Endpoint Assay: scIgG", 0),
    ("PRT-525 (protein) MITSVWTKGVTPPAKFTQGEDVFHAPYVANQGWYDITKTFNGKDNLLCGAATAGNMLHWWFDQNKEEIEAYLKKHPEKQKIIFNNQELFDLKAVINTKDSQTNSALFNYFKDKAFPNLSARRLGVFPDLVLDMFINGYYLNVYKTQTTDVNRTYQTKDRRGGIFDAVFTRGVQSKLLTERHDLKNKTLKEISDLIKQELTEGKALGLSHTYANVRINHVINLWGADFDSNGNLEAIYVTDSDTNASIGMKKYFVGVNSAGKVAISAKEIKEDNIGAQVLGLFTLSTGQDIWNQTNLEHHHHHH", "Enzyme Activity Endpoint Assay: scIgG", 0),
]
